# Tested on: mono-methyl arginine in RKO cells
# procedureText: RKO Methylation Assay, In Cell Western (ICW) for mono-methyl arginine and DNA content
# Format: cell-based
# experimentalConditions: Homo sapiens, RKO, 72 h, RKO cells, 72 hours, mono-methyl arginine, percent activation; single experiment or average of multiple experiments; read-out: EC30 (In Cell Western data, Numerical)
Assign log10 EC30 to each entry below.
Use the decimal logarithm of EC30 (nM).

Would you mind telling me what log10 EC30 value was observed for CNCCN(C)Cc1n[nH]cc1-c1ccc(Oc2ccccc2C(=O)NC)cc1 ? 3.92

Moving on to the next compound: CNCCN(C)Cc1c[nH]nc1-c1ccc(OCCCO)cc1 2.93

Moving on to the next compound: CNCCN(C)Cc1c[nH]nc1-c1ccc(Oc2cccc(C(=O)N(C)C)c2)cc1 3.55

Moving on to the next compound: CN(CCN)Cc1c[nH]nc1-c1ccc(F)c(Cl)c1 3.09

Moving on to the next compound: CN(CCN)Cc1c[nH]nc1-c1ccc(Cl)cc1 3.09

Moving on to the next compound: CNCCN(C)Cc1cn(C)nc1-c1ccc(Oc2ccccc2)cc1 3.36

Moving on to the next compound: CNCCN(C)Cc1c[nH]nc1-c1ccc(NCC(C)C)cc1 2.68

Moving on to the next compound: CNCCN(C)Cc1c[nH]nc1-c1ccc(OC(C)C)cc1 1.83

* * *

# systemName: human PRMT1 (Homo sapiens, UniProt Q99873)
# Construct: GST-tagged PRMT1; made in house; host or cells: High Five insect cells (baculovirus)
# Sequence (Q99873 with tags, fused parts or gaps): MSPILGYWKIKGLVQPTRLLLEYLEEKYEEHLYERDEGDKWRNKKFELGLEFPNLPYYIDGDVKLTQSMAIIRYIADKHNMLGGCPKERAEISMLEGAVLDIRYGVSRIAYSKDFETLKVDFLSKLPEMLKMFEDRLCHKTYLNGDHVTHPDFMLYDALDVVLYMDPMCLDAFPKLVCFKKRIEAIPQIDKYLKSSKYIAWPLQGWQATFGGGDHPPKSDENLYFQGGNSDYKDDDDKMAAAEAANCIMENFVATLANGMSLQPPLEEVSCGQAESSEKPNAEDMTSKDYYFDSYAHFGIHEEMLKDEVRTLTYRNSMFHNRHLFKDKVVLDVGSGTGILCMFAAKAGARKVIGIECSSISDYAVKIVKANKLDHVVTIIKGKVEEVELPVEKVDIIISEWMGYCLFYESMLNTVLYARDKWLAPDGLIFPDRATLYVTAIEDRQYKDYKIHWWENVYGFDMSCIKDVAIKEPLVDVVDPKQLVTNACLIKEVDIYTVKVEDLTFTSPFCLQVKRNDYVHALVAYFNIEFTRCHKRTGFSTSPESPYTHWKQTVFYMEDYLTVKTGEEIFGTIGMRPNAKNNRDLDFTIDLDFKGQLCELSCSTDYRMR
# procedureText: PRMT1 Biochemical Assay (3H-SAM Flashplate, peptide substrate)
# experimentalConditions: single experiment or average of multiple experiments
Assign IC50 to each entry below.
The reply should contain only the number, in nM.

Would you mind telling me what IC50 value was observed for CC(C)Oc1ccc(-c2c[nH]nc2CN(C)CCN)cc1Cl ? 6.08

Moving on to the next molecule: CNCCN(C)Cc1n[nH]cc1-c1cc(C(C)C)cc(C(C)C)c1 376

Moving on to the next molecule: CNCCN(C)Cc1c[nH]nc1-c1ccc(F)cc1 57.6

Moving on to the next molecule: CN(CCN)Cc1c[nH]nc1-c1cc(C#N)ccc1Cl 2860

Moving on to the next molecule: CNCCN(C)Cc1c[nH]nc1-c1cccc(C#N)c1 166

Moving on to the next molecule: CNCCN(C)Cc1c[nH]nc1-c1ccc(CO)cc1 11.1

Moving on to the next molecule: CNCCN(C)Cc1c[nH]nc1-c1ccc(OCC2CC2)c(F)c1 7.87

Moving on to the next molecule: CCC(=O)N1CCN(c2ccc(-c3n[nH]cc3CN(C)CCN)cc2)CC1 475

Moving on to the next molecule: CNCCN(C)Cc1c[nH]nc1-c1ccc(OC2CC2)c(F)c1 6.43

Moving on to the next molecule: CCN(CCN)Cc1c[nH]nc1-c1ccc(F)cc1 13.9

Moving on to the next molecule: CC(C)Cc1ccc(-c2c[nH]nc2CN(C)CCN)cc1 11.4

Moving on to the next molecule: CNCCN(C)Cc1c[nH]nc1-c1cc(OC(C)C)cc(C(C)C)c1 23.9

Moving on to the next molecule: CN(CCN)Cc1n[nH]cc1-c1ccc(OC(F)(F)F)cc1 8.85

Moving on to the next molecule: CNCCN(C)Cc1n[nH]cc1-c1ccc(OC(C)C)c(F)c1 8.79

Moving on to the next molecule: COc1ccc(-c2n[nH]cc2CN(C)CCN)cc1 21.8

Moving on to the next molecule: CNCCN(C)Cc1c[nH]nc1-c1c(OC)cccc1OC 5850

Moving on to the next molecule: CNCCN(C)Cc1c[nH]nc1-c1cccc([N+](=O)[O-])c1 57.9

Moving on to the next molecule: CN(CCN)Cc1c[nH]nc1-c1cc(Cl)cc(Cl)c1 19.2

Moving on to the next molecule: CCOc1ccc(-c2n[nH]cc2CN(C)CCN)cc1 7.27

Moving on to the next molecule: CN(CCN)Cc1cn(CC2CCOCC2)nc1-c1ccc(F)cc1 6500

Moving on to the next molecule: CN(CCN)Cc1c[nH]nc1-c1ccc(OCC(F)(F)F)cc1 4.41

Moving on to the next molecule: CNCCN(C)Cc1c[nH]nc1-c1cccc(OC)c1OC 569

Moving on to the next molecule: CNCCN(C)Cc1c[nH]nc1-c1cc(C(C)C)cc(C(C)C)c1 59.7

Moving on to the next molecule: COCCCOc1ccc(-c2n[nH]cc2CN(C)CCN)cc1 17.3

Moving on to the next molecule: CCCN(CCN)Cc1c[nH]nc1-c1ccc(F)cc1 1540

Moving on to the next molecule: CN(CCN)Cc1c[nH]nc1-c1ccc(OCCO)cc1 14.2

Moving on to the next molecule: COc1ccc(-c2n[nH]cc2CN(C)CCN)cc1Cl 8.38

Moving on to the next molecule: CCn1cc(CN(C)CCNC)c(-c2ccc(F)cc2)n1 1180

Moving on to the next molecule: CNCCN(C)Cc1cnn(C2CC2)c1-c1ccc(F)cc1 123

Moving on to the next molecule: COc1ccc(-c2n[nH]cc2CN(C)CCN)c(Cl)c1 46.3

Moving on to the next molecule: CN(CCN)Cc1c[nH]nc1-c1ccc2c(c1)N(C)C(=O)CO2 210

Moving on to the next molecule: Cc1ccc(-c2n[nH]cc2CN(C)CCN)cc1 17

Moving on to the next molecule: CNCCN(C)Cc1cn(CC(=O)OC)nc1-c1ccc(OC(C)C)cc1 215

* * *

Assign IC50 to each entry below.
# systemName: human PRMT6 (Homo sapiens)
# Construct: Flag-PRMT6-His; made in house; host or cells: HEK 293F cells (BacMam baculovirus)
# procedureText: PRMT6 Biochemical Assay (3H-SAM Flashplate, peptide substrate)
# experimentalConditions: Biochemical IC50 PRMT6, single experiment or average of multiple experiments
The reply should contain only the number, in nM.

Give human PRMT6 (Homo sapiens) IC50 for CNCCN(C)Cc1cn(CCC(O)CO)nc1-c1ccc(F)cc1 (centres unmarked) 627

Moving on to the next compound: CC(C)Oc1ccc(-c2c[nH]nc2CN(C)CCN)cc1Cl 20.5

Moving on to the next compound: CNCCN(C)Cc1c[nH]nc1-c1ccc(Oc2cccc(F)c2)cc1 2.97

Moving on to the next compound: CN(CCN)Cc1c(-c2ccc(C#N)cc2)ncn1C 1160

Moving on to the next compound: CNCCN(C)Cc1cn(CCCC(O)CO)nc1-c1ccc(F)cc1 (centres unmarked) 565

Moving on to the next compound: CNCCN(C)Cc1c[nH]nc1-c1ccccc1Oc1ccccc1 2440

Moving on to the next compound: CNCCN(C)Cc1c[nH]nc1-c1ccc(OCCOC)cc1 36.5

Moving on to the next compound: CN(CCN)Cc1c[nH]nc1-c1ccc2c(c1)N(C)C(=O)CO2 28.7

* * *

# systemName: human PRMT6 (Homo sapiens, UniProt Q96LA8)
# Construct: Flag-PRMT6-His; made in house; host or cells: HEK 293F cells (BacMam baculovirus)
# Sequence (Q96LA8 with tags, fused parts or gaps): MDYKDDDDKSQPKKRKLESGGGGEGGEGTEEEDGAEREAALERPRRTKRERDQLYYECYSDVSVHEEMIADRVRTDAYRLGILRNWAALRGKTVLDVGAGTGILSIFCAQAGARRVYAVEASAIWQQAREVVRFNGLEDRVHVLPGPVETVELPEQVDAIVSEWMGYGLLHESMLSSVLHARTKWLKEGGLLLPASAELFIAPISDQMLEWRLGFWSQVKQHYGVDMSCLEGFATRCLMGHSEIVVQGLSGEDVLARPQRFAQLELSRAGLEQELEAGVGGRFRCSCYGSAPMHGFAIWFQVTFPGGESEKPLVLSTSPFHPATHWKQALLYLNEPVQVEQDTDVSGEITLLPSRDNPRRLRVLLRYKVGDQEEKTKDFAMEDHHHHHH
# procedureText: PRMT6 Biochemical Assay (3H-SAM Flashplate, peptide substrate)
# experimentalConditions: Biochemical IC50 PRMT6, single experiment or average of multiple experiments
measuredMetric: IC50
Could you write the number and then its unit?

Would you mind telling me what IC50 value was observed for CNCCN(C)Cc1c[nH]nc1-c1ccccc1OC ? 183 nM

Moving on to the next molecule: CNCCN(C)Cc1c[nH]nc1-c1ccc(Oc2ccccc2)c(C(=O)NC)c1 16.6 nM

Moving on to the next molecule: CN(CCN)Cc1c[nH]nc1-c1ccc(OCCO)cc1 15.3 nM

Moving on to the next molecule: COCCn1cc(CN(C)CCN)c(-c2ccc(F)cc2)n1 467 nM

Moving on to the next molecule: CCOC(=O)c1cccc(-c2n[nH]cc2CN(C)CCN)c1 29 nM

* * *

# System: mono-methyl arginine in RKO cells
# procedureText: RKO Methylation Assay, In Cell Western (ICW) for mono-methyl arginine and DNA content
# Type: cell-based
# experimentalConditions: Homo sapiens, RKO, 72 h, RKO cells, 72 hours, mono-methyl arginine, percent activation; single experiment or average of multiple experiments; read-out: EC30 (In Cell Western data, Numerical)
measuredMetric: EC30

Would you mind telling me what EC30 value was observed for CNCCN(C)Cc1cn(C2CCOC2)nc1-c1ccc(OC(C)C)cc1 (stereo not shown) [Compound 215] ? 7.47 µM

Moving on to the next compound: COCCOc1ccc(-c2n[nH]cc2CN(C)CCN)cc1 [Compound 167] 0.845 µM

Moving on to the next compound: CNCCN(C)Cc1cn(C2CC2)nc1-c1ccc(F)cc1 [Compound 13] > 20 µM

Moving on to the next compound: Cc1ccccc1-c1n[nH]cc1CN(C)CCN [Compound 161] 14.9 µM

Moving on to the next compound: CN(CCN)Cc1n[nH]cc1-c1ccc(OC2CC2)cc1 [Compound 119] 4.54 µM

Moving on to the next compound: CCCc1ccc(-c2n[nH]cc2CN(C)CCNC)cc1 [Compound 20] 0.18 µM

Moving on to the next compound: CC(C)Oc1ccc(-c2c[nH]nc2CN(C)CCN)cc1F [Compound 144] 0.284 µM

Moving on to the next compound: CNCCN(C)Cc1c[nH]nc1-c1ccc(OCCCOC)cc1 [Compound 209] 0.557 µM

Moving on to the next compound: CNCCN(C)Cc1cn(C(C)C)nc1-c1ccc(F)cc1 [Compound 15] > 20 µM

Moving on to the next compound: CN(CCN)Cc1cnn(CC2COC2)c1-c1ccc(F)cc1 [Compound 80] > 20 µM
